test: Drug concentration in plasma isolated from C57/BL6 mouse at 0.625 mg/kg, po BID for 3 days measured after 14 hrs post last dose; type: ADME, organism-based; settings: time 3 day
Readout Name: concentration at 72 h (nM)

I. O=C(O)c1ccc(CN2C[C@@H]3C[C@H]2CN3Cc2ccc(Oc3ccc(-c4ncco4)cc3)cc2)cc1 [ACEBILUSTAT]
II. N[C@@H](CC(=O)O)Cn1nnc(-c2ccc(Oc3ncc(Cl)cc3F)cc2)n1
Q: // compare measured concentration at 72 h, left I , right II , return larger Write the label of whichever entry you select.
Result: I

---

experiment: Dissociation constant, pKa1 of compound; assay type: physicochemical
Readout Name: pKa
Output spec: single numeric token, no unit.

Q: Requested field: pKa. Item: N[C@@H](CC(=O)O)Cn1nnc(-c2ccc(Oc3ncc(Cl)cc3F)cc2)n1
Result: 7.5
